These entries and their values trace back to paper PMC10035947.

Can you tell me Selectivity ratio I/XII for the items I'm about to list?
molecular target: hCA XII (Homo sapiens); construct: made in house; test: stopped flow CO2 hydrase assay; type: biochemical; conditions: KI hCA I / KI hCA XII
Sequence (O43570 25-354): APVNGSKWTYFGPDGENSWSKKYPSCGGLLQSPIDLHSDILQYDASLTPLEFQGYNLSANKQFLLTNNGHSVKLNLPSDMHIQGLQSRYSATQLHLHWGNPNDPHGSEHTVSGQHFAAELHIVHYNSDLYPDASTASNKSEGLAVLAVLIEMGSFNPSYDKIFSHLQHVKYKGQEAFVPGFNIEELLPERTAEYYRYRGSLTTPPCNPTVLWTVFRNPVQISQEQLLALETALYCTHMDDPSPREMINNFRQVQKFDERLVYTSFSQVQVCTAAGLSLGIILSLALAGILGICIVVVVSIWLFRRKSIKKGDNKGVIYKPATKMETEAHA
Quick one: just the number, no unit, thanks!

Value of Selectivity ratio I/XII reported for the compound Cc1cccc(-c2nc(Nc3cccc(C(=O)O)c3)c3ccccc3n2)c1 [7a] is 20.8

Value of Selectivity ratio I/XII reported for the compound Cc1cccc(-c2nc(Nc3ccc(C(=O)O)cc3)c3ccccc3n2)c1 [8a] is 23.1

Value of Selectivity ratio I/XII reported for the compound COc1ccc(-c2nc(Nc3ccc(C(=O)O)cc3)c3ccccc3n2)cc1 [8c] is 265.2

Value of Selectivity ratio I/XII reported for the compound Cc1ccc(-c2nc(Nc3ccccc3C(=O)O)c3ccccc3n2)cc1 [6b] is 14.1

Value of Selectivity ratio I/XII reported for the compound COc1ccc(-c2nc(Nc3ccccc3C(=O)O)c3ccccc3n2)cc1 [6c] is 11.2

###

biological target: hCA IX (Homo sapiens, UniProt Q16790); construct: made in house; assay: stopped flow CO2 hydrase assay; type: biochemical; conditions: KI hCA I / KI hCA IX
Measurement label: Selectivity ratio I/IX
Quick one: just the number, no unit, thanks!

Value of Selectivity ratio I/IX reported for the compound Cc1cccc(-c2nc(Nc3ccc(C(=O)O)cc3)c3ccccc3n2)c1 [8a] is 20.4

Value of Selectivity ratio I/IX reported for the compound Cc1ccc(-c2nc(Nc3ccc(C(=O)O)cc3)c3ccccc3n2)cc1 [8b] is 45.8

Value of Selectivity ratio I/IX reported for the compound COc1ccc(-c2nc(Nc3ccc(C(=O)O)cc3)c3ccccc3n2)cc1 [8c] is 14.7

Value of Selectivity ratio I/IX reported for the compound Cc1cccc(-c2nc(Nc3ccccc3C(=O)O)c3ccccc3n2)c1 [6a] is 2.4

###

test system: A549/ATCC; test: NCI SRB assay; format: cell-based, human; settings: A549/ATCC, 5-dose
Measurement label: LC50

Value of LC50 reported for the molecule Cc1ccc(-c2nc(Nc3ccccc3C(=O)O)c3ccccc3n2)cc1 is < 100 µM

###

test system: NCI-H226; test: NCI SRB assay; format: cell-based, human; conditions: NCI-H226, 5-dose
Measurement label: LC50

Value of LC50 reported for the compound Cc1ccc(-c2nc(Nc3ccccc3C(=O)O)c3ccccc3n2)cc1 [6b] is < 100 µM

###

tested on: MOLT-4; assay: NCI SRB assay; type: cell-based, human; details: MOLT-4, 1.00E-5 Molar
Measurement label: Growth Percent
Please answer using the number first and the unit second.

Value of Growth Percent reported for the molecule Cc1ccc(-c2nc(Nc3ccccc3C(=O)O)c3ccccc3n2)cc1 is 10.91%

Value of Growth Percent reported for the molecule Cc1cccc(-c2nc(Nc3ccc(C(=O)O)cc3)c3ccccc3n2)c1 is 78.39%

Value of Growth Percent reported for the molecule Cc1cccc(-c2nc(Nc3ccccc3C(=O)O)c3ccccc3n2)c1 is 34.28%

Value of Growth Percent reported for the molecule Cc1ccc(-c2nc(Nc3cccc(C(=O)O)c3)c3ccccc3n2)cc1 is 89.24%

Value of Growth Percent reported for the molecule Cc1ccc(-c2nc(Nc3ccc(C(=O)O)cc3)c3ccccc3n2)cc1 is 76.42%

Value of Growth Percent reported for the molecule COc1ccc(-c2nc(Nc3ccccc3C(=O)O)c3ccccc3n2)cc1 is 36.24%
